src = patent US20190055314A1

biological target: T1, human CD137-His6 (Sino Biological #10041-H08H) (human, UniProt Q07011 24-186); test: SPR Biacore, IgG
T1 construct: Bought; also called human CD137 protein; not shown: His6 tag
Measurement Label: log10 kon (log10 of the value in M⁻¹ s⁻¹)

AG10124 (antibody, human IgG4 S228P, kappa, V domains shown, also called IgG of Fab 5302) VH: EVQLVESGGGLVQPGGSLRLSCAASGFSLSTGGVGVAWIRQAPGKGLEWVSSISGYGSTTYYADSVKGRFTISRDNSKNTLYLQLNSLRAEDTAVYYCAREGSDAVLGDWFGYWGQGTLVTVSS VL: DIQLTQSPSSLSASVGDRVTITCQASQDITTYLAWYQQKPGKAPKLLIYDASNRATGIPSRFSGSGSGTDFTLTISSLQPEDFATYYCQQGYYLWTFGQGTKVEIKR: 5.70
AG10084 (antibody, human IgG4 S228P, kappa, V domains shown) VH: EVQLVESGGGLVQPGGSLRLSCAASGYSITSGHYWNWIRQAPGKGLEWVSGISGDGSSTYYADSVKGRFTISRDNSKNTLYLQLNSLRAEDTAVYYCARGGSDAVLGDWFAYWGQGTLVTVSS VL: DIQLTQSPSSLSASVGDRVTITCRASQSISSYLAWYQQKPGKAPKLLIYDASNLETGVPSRFSGSGSGTDFTLTISSLQPEDFATYYCQQGYSTWTFGQGTKVEIKR: 4.82
AG10081 (antibody, human IgG4 S228P, kappa, V domains shown, also called IgG of Fab 5299) VH: EVQLVESGGGLVQPGGSLRLSCAASGYSISSGHYWGWIRQAPGKGLEWLALIDWYGDKYYSTSLKSRLTISRDNSKNTLYLQLNSLRAEDTAVYYCARSDYYGSHFDYWGQGTLVTVSS VL: DIQLTQSPSSLSASVGDRVTITCRASESVDFDGFSFLAWYQQKPGKAPKLLIYDASNLETGVPSRFSGSGSGTDFTLTISSLQPEDFATYYCQQYDTLPRTFGQGTKVEIKR: 5.38
AG10127 (antibody, human IgG4 S228P, kappa, V domains shown, also called IgG of Fab 5318) VH: EVQLVESGGGLVQPGGSLRLSCAASGFSLSTSGVAVGWIRQAPGKGLEWLALIDWDDDKYYSTSLKSRLTISRDNSKNTLYLQLNSLRAEDTAVYYCAREGSTAVAGDWFAYWGQGTLVTVSS VL: DIQLTQSPSSLSASVGDRVTITCQASQDIRTFLAWYQQKPGKAPKLLIYDASNRATGIPSRFSGSGSGTDFTLTISSLQPEDFATYYCQQGYSTWTFGQGTKVEIKR: 5.48
AG10080 (antibody, human IgG4 S228P, kappa, V domains shown, also called IgG of Fab 4217) VH: EVQLVESGGGLVQPGGSLRLSCAASGYSISSGYYWDWIRQAPGKGLEWVSSISGDGDTTYYADSVKGRFTISRDNSKNTLYLQLNSLRAEDTAVYYCAREYYGYGYALDYWGQGTLVTVSS VL: DIQLTQSPSSLSASVGDRVTITCRASQGISSYLAWYQQKPGKAPKLLIYDASSLESGVPSRFSGSGSGTDFTLTISSLQPEDFATYYCQQYYSTPLTFGQGTKVEIKR: 6.08
AG10058 (antibody, human IgG4 S228P, kappa, V domains shown) VH: EVQLVESGGGLVQPGGSLRLSCAASGFSLSTSGVGVGWIRQAPGKGLEWLALIDWDDDKYYSPSLKSRLTISRDNSKNTLYLQLNSLRAEDTAVYYCARGGSDTVLGDWFAYWGQGTLVTVSS VL: DIQLTQSPSSLSASVGDRVTITCRASQSVSPYLAWYQQKPGKAPKLLIYDASSLESGVPSRFSGSGSGTDFTLTISSLQPEDFATYYCQQGYSLWTFGQGTKVEIKR: 5.61
AG10132 (antibody, human IgG4 S228P, kappa, V domains shown, also called IgG of Fab 5408) VH: EVQLVESGGGLVQPGGSLRLSCAASGYSITSGYHWSWIRQAPGKGLEWVSSISGYGDTTYYADSVKGRFTISRDNSKNTLYLQLNSLRAEDTAVYYCAREGSDTVLGDWFAYWGQGTLVTVSS VL: DIQLTQSPSSLSASVGDRVTITCQASQDIRTYLAWYQQKPGKAPKLLIYDASNLETGVPSRFSGSGSGTDFTLTISSLQPEDFATYYCQQGYSIWTFGQGTKVEIKR: 5.30
AG10082 (antibody, human IgG4 S228P, kappa, V domains shown, also called IgG of Fab 5300) VH: EVQLVESGGGLVQPGGSLRLSCAASGYTFSNYWIHWVRQAPGKGLEWVSYISGDGDTTYYADSVKGRFTISRDNSKNTLYLQLNSLRAEDTAVYYCAREGSTTVAGDWFAYWGQGTLVTVSS VL: DIQLTQSPSSLSASVGDRVTITCRASQGIGSFLGWYQQKPGKAPKLLIYDASSLESGVPSRFSGSGSGTDFTLTISSLQPEDFATYYCQQYYSLVTFGQGTKVEIKR: 5.75
AG10086 (antibody, human IgG4 S228P, kappa, V domains shown, also called IgG of Fab 5409) VH: EVQLVESGGGLVQPGGSLRLSCAASGYSISSGHHWAWIRQAPGKGLEWVSVISGSGSSTYYADSVKGRFTISRDNSKNTLYLQLNSLRAEDTAVYYCAREGSDTVLGDWFAYWGQGTLVTVSS VL: DIQLTQSPSSLSASVGDRVTITCRASQGISSYLAWYQQKPGKAPKLLIYDASNLETGVPSRFSGSGSGTDFTLTISSLQPEDFATYYCQQGYSTWTFGQGTKVEIKR: 5.00
AG10083 (antibody, human IgG4 S228P, kappa, V domains shown, also called IgG of Fab 5323) VH: EVQLVESGGGLVQPGGSLRLSCAASGFSLSTSGVGVGWIRQAPGKGLEWIGEIYHSGSTYYSPSLKSRVTISRDNSKNTLYLQLNSLKAEDTAVYYCAREGSDVVTGDWFAYWGQGTLVTVSS VL: DIQLTQSPSSLSASVGDRVTITCRASQGISSVLAWYQQKPGKAPKLLIYDASSLESGVPSRFSGSGSGTDFTLTISSLQPEDFATYYCQQGYSLWTFGQGTKVEIKR: 5.76
